Target: T1, human CD22-ECD-His protein (human, UniProt P20273 20-687)
T1 construct: Made in house in HEK293E; also called hCD22-ECD-His; recombinant human CD22-ECD His protein; not shown: His tag
T1 sequence: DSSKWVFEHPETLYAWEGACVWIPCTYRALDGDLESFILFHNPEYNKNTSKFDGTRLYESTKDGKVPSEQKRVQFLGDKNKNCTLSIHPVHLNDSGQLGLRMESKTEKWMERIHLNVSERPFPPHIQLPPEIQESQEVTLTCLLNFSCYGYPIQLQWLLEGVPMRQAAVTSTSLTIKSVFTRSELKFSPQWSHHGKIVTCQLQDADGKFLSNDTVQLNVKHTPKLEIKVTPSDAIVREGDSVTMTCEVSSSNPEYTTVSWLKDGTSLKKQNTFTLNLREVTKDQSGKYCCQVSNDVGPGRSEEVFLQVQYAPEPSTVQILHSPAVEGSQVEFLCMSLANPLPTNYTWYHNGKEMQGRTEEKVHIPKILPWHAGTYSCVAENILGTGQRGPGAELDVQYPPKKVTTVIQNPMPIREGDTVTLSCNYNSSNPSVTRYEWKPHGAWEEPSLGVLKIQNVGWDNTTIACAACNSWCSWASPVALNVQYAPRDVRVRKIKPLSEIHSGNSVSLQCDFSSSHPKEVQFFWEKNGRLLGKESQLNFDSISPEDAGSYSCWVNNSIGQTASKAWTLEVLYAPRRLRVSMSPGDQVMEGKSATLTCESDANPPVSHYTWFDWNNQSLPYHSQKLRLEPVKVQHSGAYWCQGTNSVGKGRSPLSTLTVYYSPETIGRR
Test: ELISA, Ab 10.00 nM

binder: F1.161.7 (antibody, human IgG1, kappa, V domains shown, Human-murine chimeric IgG1, kappa) VH: QVQLQQPGAELVKPGASVKMSCKASGYTFTSYWISWVKQRPGQGLEWIGDIYPGTGSSNYNEKFKSKATLTVDTSSSTAYMQLSSLTSEDSAVYYCARLKFEGIGYWGQGTTLTVSS VL: QIVLTQSPAIMSASLGEEITLTCSASSSVSYMHWFQQKSGTSPKLLIYSISNLASGVPSRFSGSGSGTFYSLTISSVEAEDAADYYCHQWSSYPWTFGGGTKLEIKR
OD450 (OD450): 2.63

binder: F1.17.1 (antibody, human IgG1, kappa, V domains shown, Human-murine chimeric IgG1, kappa) VH: QVQLKESGPGLVAPSQSLSITCTVSGFSLSRYTVHWVRQPPGKGLEWLGMIWGGGSTDYNSALKSRLSISKDNSKSQVFLKMNSLQTDDTAMYYCARPHDFDAGGFAYWGQGTLVTVSA VL: QIVLTQSPAILSTSPGEKVTMTCSASSRVNYMYWYQQKPGSSPRLLIYDTSNLASGVPVRFSGSGSGTSYSLTISRMEAEDAATYYCQQWTSYPLTFGAGTKLELKR
OD450 (OD450): 2.21

binder: F1.245.2 (antibody, human IgG1, kappa, V domains shown, Human-murine chimeric IgG1, kappa) VH: EVQLQQSGAELVKPGASVKLSCTGSGFNIKDYYIHWVKQRTEQGLEWMGRIDPEDGETEYAPKFQDEATITSDTSSNTAYLQLSSLTYEDTAVYYCAREAAGYFYRGSSYGYFDVWGTGTTVTVSS VL: DFQMTQTTSFLSASLGDRVTISCSASQDISNYLNWYQQKPDGTVKLLIYYTSSLHSGVPSRFSGSGSGTDYSLTISNLEPEDIATYYCQQYSMLPYTFGGGTKLEMER
OD450 (OD450): 2.54

binder: F2.70.2 (antibody, human IgG1, lambda, V domains shown, Human-murine chimeric IgG1, lambda) VH: EVQLVESGGGLVKPGGSLKLSCAASGFTFSDYGMNWFRQAPEKGLEWVAYISRGSHTIYYADTVKGRFTISRDNAKNTLFLQMTSLRSNDTAMYYCVRMAGYYAMDYWGQGTSVTVSS VL: QLVLTQSSSASFSLGASAKLTCTLSSQHSSYIIEWYQQQPLKPPKYVMELKKDGSHSTGDGIPDRFSGSSSGADRYLSISNIQPEDEAIYICGVGDTIKEQFVYVFGGGTKVTVLG
OD450 (OD450): 2.03

binder: F1.172.13 (antibody, human IgG1, kappa, V domains shown, Human-murine chimeric IgG1, kappa) VH: QVTLKESGPGILQSSQTLSLTCSFSGFSLSTSGMGVSWIRQPSGKGLEWLAHIYWDDDKRYNPSLKSRLTISKDTSRNQVFLKITSVDTADTATYYCARAPPPNWDEYYFDYWGQGTTLTVSS VL: DIQMTQSPASLSASVGETVTITCRASGNIHNSLAWYQQKQGKSPQLLVHNAKTLADGVPSRFSGSGSGTQYSLKINSLQPEDFGSYYCQHFWSTPPFGGGTKLEIKR
OD450 (OD450): 2.51

binder: F1.60.9 (antibody, human IgG1, kappa, V domains shown, Human-murine chimeric IgG1, kappa) VH: QVQLKESGPGLVAPSQSLSITCTVSGLSLNNYGVSWVRQPPGKGLEWLGVIWGDGSTNYHSALISRLSISKDNSKSQVFLKLNSLHTDDTATYYCAINWGDYWGQGTTLIVSS VL: DIKMTQSPSSMNASLGERVTITCKASQDINSYLSWFQQKPGKSPKILIYRANRLIDGVPSRFSGSGSGQDYSLTISSLEYEDMGIYYCLQYGVFPLTFGAGTKLELKR
OD450 (OD450): 2.55

binder: F1.120.15 (antibody, human IgG1, kappa, V domains shown, Human-murine chimeric IgG1, kappa) VH: QVQLQQSGPELVKPGASVKISCKASGNAFSNSWMNWVKQRPGKGLEWIGRVYSEDGDTQYNGKFRDKATLTADRSTSTAYMQLSSLTSEDSAVYFCARWLIYYGTYGAMDYWGQGTSVTVSS VL: DIQMTQTTSSLSASLGDRVTISCRASQDINNYLNWYHQKPDGTVKLLIYFTSRPYSGVPSRFSGSGSGTDYSLTISNLEQEDIATYFCQQGNTLPWTFGGGTKLEIKR
OD450 (OD450): 2.61

binder: F1.7.6 (antibody, human IgG1, kappa, V domains shown, Human-murine chimeric IgG1, kappa) VH: EIQLQQSGPELVKPGTSVKVSCKASGYDFTRYNMYWVKQSHGKSLEWIGYIDPYNGDTRYNQKFKGKATLTVDKSSSTAYMHLNSLTSEDSAVYYCEAIYYDMEGYALDYWGQGTSVTVSS VL: DIVMSQSPSSLAVSVGEKVTMSCKSSQSLLYSNNQKNYLAWYQQKPGQSPKKLIYWASTRESGVPDRLTGSGSGTDFTLTISSVTAEDLAVYYCQQFYSYPWTFGGGTKLEIKR
OD450 (OD450): 2.46

binder: F2.343.16 (antibody, human IgG1, lambda, V domains shown, Human-murine chimeric IgG1, lambda) VH: QVQLKQSGPGLVQPSQSLSITCTVSGFSLTGYGVQWVRQSPGKGLEWLGVIWGGGGTDYNAAFISRLNIIKDNSKSQVFFKMNSLQADDTAIYYCARYSKYGHFDVWGTGTAVTVSS VL: QAVVTQESALTTSPGETVTLTCRSSTGAVTTSNYANWVQEKPDHLFTGLIGGTYNRVPGVPARFSGSLIGDKAALTITGAQTEDEAIYFCALWYSNHFWVFGGGTKLTVLG
OD450 (OD450): 1.84

binder: F2.99.1 (antibody, human IgG1, lambda, V domains shown, Human-murine chimeric IgG1, lambda) VH: QVTLKESGPGILQPSQTLSLTCSFSGFSLSTFPMGVGWIRQPSGKGLEWLAHIWWDDDEYYNPVLKSRLTISKDTSKKQVYLRIANVDTVDTATYYCTRANWDRWYFDVWGTGTTVTVSS VL: QLVLTQSSSASFSLGASAKLTCTLSRQHSAYTIEWYQQQPLKPPKYVMEVKKDGSHSTGDGIPDRFSGSSSGADRYLSISNIQPEDEAIYICGVGDTIKEHFVFGGGTKVTVLG
OD450 (OD450): 2.06
